For each entry below, report its Toxicity: Dose whose administration produces the first toxic symptoms value.
# System: rats
# measurementProtocol: Toxicity / toleration in rats (changes in the initial ECG, cyanosis and cramps), oral administration
# Format: in vivo, rats (Sprague Dawley)
# Design: unit: mg/kg
# reportedConditions: oral, rats; mg/kg printed only over the effective dose columns and in b40 (log dose)
Form rule: numeric answer, no unit written next to it.

INPUT: Using the record for CCCCc1c(C)[nH]c(C(=O)OCC)c1OCC(O)CN1CCC(O)(c2ccccc2)CC1 (stereo not drawn) , report its Toxicity: Dose whose administration produces the first toxic symptoms.
OUTPUT: 100

INPUT: Using the record for COC(=O)c1[nH]c(C)c(C)c1OCC(O)CN1CCC(O)(c2ccccc2)CC1 (stereo not drawn) , report its Toxicity: Dose whose administration produces the first toxic symptoms.
OUTPUT: 46.4

INPUT: Using the record for COC(=O)c1[nH]c(C)c(C)c1OCCCCN1CCC(O)(c2ccccc2)CC1 , report its Toxicity: Dose whose administration produces the first toxic symptoms.
OUTPUT: 46.4

INPUT: Using the record for CCOC(=O)c1[nH]c(C)c(C)c1OCCN1CCC(O)(c2ccccc2)CC1 , report its Toxicity: Dose whose administration produces the first toxic symptoms.
OUTPUT: 46.4

INPUT: Using the record for COC(=O)c1[nH]c(C)c(C)c1OCC(O)CN1CCC(O)(c2ccccn2)CC1 (stereo not drawn) , report its Toxicity: Dose whose administration produces the first toxic symptoms.
OUTPUT: 100

INPUT: Using the record for CCC[N+]12C(O)C(CC)C3CC1C1N(C)c4ccccc4C14CC2C3C4O (stereo not drawn) [Prajmalium, N-propylajmalin, reference compound] , report its Toxicity: Dose whose administration produces the first toxic symptoms.
OUTPUT: 21.5

====

# System: rats
# measurementProtocol: Toxicity / toleration in rats (changes in the initial ECG, cyanosis and cramps), oral administration
# Assay type: in vivo, rats (Sprague Dawley)
# reportedConditions: oral, rats; toxic dose / ED 50%
# Protocol: To determine the anti-arrhythmic activity, the substances are administered orally to rats (Sprague Dawley, weight 200-250 g), 45 minutes before narcosis. […] For further characterization of the substances, the anti-arrhythmic effect of the maximum tolerated dose is determined from the decimal-geometric dose progression (factor 3.cuberoot.10) employed in the experiments. Furthermore, the dose at which toxic symptoms (changes in the initial ECG, cyanosis and cramps) occur is determined. […]
Counter-ions that a name gives are not always drawn.
For each entry below, report its Q (therapeutic range, quotient of the toxic dose and the ED 50%) value.
Form rule: numeric answer, no unit written next to it.

INPUT: Using the record for CCOC(=O)c1[nH]c(C)c(C)c1OCC(O)CN1CCC(O)(c2ccccc2)CC1 (stereo not drawn) [Example 2, hydrochloride] , report its Q (therapeutic range, quotient of the toxic dose and the ED 50%).
OUTPUT: 7.5

INPUT: Using the record for CCOC(=O)c1[nH]c(C)c(C)c1OCC(O)CN1CCC(O)(c2ccccn2)CC1 (stereo not drawn) [Example 1, dihydrochloride] , report its Q (therapeutic range, quotient of the toxic dose and the ED 50%).
OUTPUT: 13

INPUT: Using the record for CCOC(=O)c1[nH]c(C)c(C)c1OCC(O)CN1CCC(O)(c2ccc(F)cc2)CC1 (stereo not drawn) [Example 13] , report its Q (therapeutic range, quotient of the toxic dose and the ED 50%).
OUTPUT: 7.8

INPUT: Using the record for COC(=O)c1[nH]c(C)c(C)c1OCCCCN1CCC(O)(c2ccccc2)CC1 [Example 11] , report its Q (therapeutic range, quotient of the toxic dose and the ED 50%).
OUTPUT: 8.4

INPUT: Using the record for COC(=O)c1[nH]c(C)c(C)c1OCCCN1CCC(O)(c2ccccc2)CC1 [Example 6] , report its Q (therapeutic range, quotient of the toxic dose and the ED 50%).
OUTPUT: 5.8

INPUT: Using the record for COC(=O)c1[nH]c(C)c(C)c1OCC(O)CN1CCC(O)(c2ccccc2)CC1 (stereo not drawn) [Example 19] , report its Q (therapeutic range, quotient of the toxic dose and the ED 50%).
OUTPUT: 14

====

For each entry below, report its MTD value.
# measurementProtocol: Toxicity / toleration in rats (changes in the initial ECG, cyanosis and cramps), oral administration
# Type: in vivo, rats (Sprague Dawley)
# reportedConditions: rat, in vivo; oral, rats; mg/kg printed only over the effective dose columns and in b40 (log dose); read-out: Maximum effect: Dose (maximum tolerated dose)
# Experimental: To determine the anti-arrhythmic activity, the substances are administered orally to rats (Sprague Dawley, weight 200-250 g), 45 minutes before narcosis. […] For further characterization of the substances, the anti-arrhythmic effect of the maximum tolerated dose is determined from the decimal-geometric dose progression (factor 3.cuberoot.10) employed in the experiments. Furthermore, the dose at which toxic symptoms (changes in the initial ECG, cyanosis and cramps) occur is determined. […]
Counter-ions that a name gives are not always drawn.
Report the value in mg/kg with no unit label.

INPUT: Using the record for CCOC(=O)c1[nH]c(C)c(C)c1OCC(O)CN1CCC(O)(c2ccc(F)cc2)CC1 (stereo not shown) , report its MTD.
OUTPUT: 21.5

INPUT: Using the record for CCC[N+]12C(O)C(CC)C3CC1C1N(C)c4ccccc4C14CC2C3C4O (stereo not shown) [Prajmalium, N-propylajmalin, reference compound] , report its MTD.
OUTPUT: 10

INPUT: Using the record for CCOC(=O)c1[nH]c(C)c(C)c1OCC(O)CN1CCC(O)(c2ccccc2)CC1 (stereo not shown) [Example 2, hydrochloride] , report its MTD.
OUTPUT: 21.5

INPUT: Using the record for CCCCc1c(C)[nH]c(C(=O)OCC)c1OCC(O)CN1CCC(O)(c2ccccc2)CC1 (stereo not shown) , report its MTD.
OUTPUT: 46.4

INPUT: Using the record for COC(=O)c1[nH]c(C)c(C)c1OCC(O)CN1CCC(O)(c2ccccn2)CC1 (stereo not shown) , report its MTD.
OUTPUT: 46.4

INPUT: Using the record for CCOC(=O)c1[nH]c(C)c(C)c1OCC(O)CN1CCC(O)(c2ccccn2)CC1 (stereo not shown) [Example 1, dihydrochloride] , report its MTD.
OUTPUT: 46.4

INPUT: Using the record for COC(=O)c1[nH]c(C)c(C)c1OCCCN1CCC(O)(c2ccccc2)CC1 , report its MTD.
OUTPUT: 10

INPUT: Using the record for COC(=O)c1[nH]c(C)c(C)c1OCCCCN1CCC(O)(c2ccccc2)CC1 , report its MTD.
OUTPUT: 21.5

INPUT: Using the record for COC(=O)c1[nH]c(C)c(C)c1OCC(O)CN1CCC(O)(c2ccccc2)CC1 (stereo not shown) , report its MTD.
OUTPUT: 21.5

INPUT: Using the record for CCOC(=O)c1[nH]c(C)c(C)c1OCCN1CCC(O)(c2ccccc2)CC1 , report its MTD.
OUTPUT: 21.5

====

For each entry below, report its Toxicity: Dose whose administration produces the first toxic symptoms value.
# Tested on: rats
# measurementProtocol: Toxicity / toleration in rats (changes in the initial ECG, cyanosis and cramps), oral administration
# Type: in vivo, rats (Sprague Dawley)
# Set-up: unit: mg/kg
# reportedConditions: oral, rats; mg/kg printed only over the effective dose columns and in b40 (log dose)
Counter-ions that a name gives are not always drawn.
Form rule: numeric answer, no unit written next to it.

INPUT: Using the record for CCOC(=O)c1[nH]c(C)c(C)c1OCC(O)CN1CCC(O)(c2ccc(F)cc2)CC1 (stereo not shown) [Example 13] , report its Toxicity: Dose whose administration produces the first toxic symptoms.
OUTPUT: 46.4

INPUT: Using the record for CCOC(=O)c1[nH]c(C)c(C)c1OCC(O)CN1CCC(O)(c2ccccn2)CC1 (stereo not shown) [Example 1, dihydrochloride] , report its Toxicity: Dose whose administration produces the first toxic symptoms.
OUTPUT: 100

INPUT: Using the record for COC(=O)c1[nH]c(C)c(C)c1OCCCN1CCC(O)(c2ccccc2)CC1 [Example 6] , report its Toxicity: Dose whose administration produces the first toxic symptoms.
OUTPUT: 21.5

INPUT: Using the record for CCOC(=O)c1[nH]c(C)c(C)c1OCC(O)CN1CCC(O)(c2ccccc2)CC1 (stereo not shown) [Example 2, hydrochloride] , report its Toxicity: Dose whose administration produces the first toxic symptoms.
OUTPUT: 46.4

====

# Tested on: aconitine-induced arrhythmia of rats
# measurementProtocol: Anti-arrhythmic effect on aconitine-induced arrhythmia in rats, oral administration
# Type: in vivo, rats (Sprague Dawley)
# reportedConditions: relative to Prajmalium = 1.00, from ED 50%
# Description: To determine the anti-arrhythmic activity, the substances are administered orally to rats (Sprague Dawley, weight 200-250 g), 45 minutes before narcosis. […] For further characterization of the substances, the anti-arrhythmic effect of the maximum tolerated dose is determined from the decimal-geometric dose progression (factor 3.cuberoot.10) employed in the experiments. Furthermore, the dose at which toxic symptoms (changes in the initial ECG, cyanosis and cramps) occur is determined. […]
Counter-ions that a name gives are not always drawn.
assayMetric: R.A. = relative activity
Form rule: numeric answer, no unit written next to it.

INPUT: Give aconitine-induced arrhythmia of rats R.A. = relative activity for CCOC(=O)c1[nH]c(C)c(C)c1OCC(O)CN1CCC(O)(c2ccccn2)CC1 (stereo not shown) [Example 1, dihydrochloride]
OUTPUT: 0.64

INPUT: Give aconitine-induced arrhythmia of rats R.A. = relative activity for CCC[N+]12C(O)C(CC)C3CC1C1N(C)c4ccccc4C14CC2C3C4O (stereo not shown) [Prajmalium, N-propylajmalin, reference compound]
OUTPUT: 1.00

INPUT: Give aconitine-induced arrhythmia of rats R.A. = relative activity for COC(=O)c1[nH]c(C)c(C)c1OCC(O)CN1CCC(O)(c2ccccc2)CC1 (stereo not shown) [Example 19]
OUTPUT: 1.48

INPUT: Give aconitine-induced arrhythmia of rats R.A. = relative activity for CCOC(=O)c1[nH]c(C)c(C)c1OCC(O)CN1CCC(O)(c2ccccc2)CC1 (stereo not shown) [Example 2, hydrochloride]
OUTPUT: 0.80

INPUT: Give aconitine-induced arrhythmia of rats R.A. = relative activity for COC(=O)c1[nH]c(C)c(C)c1OCCCCN1CCC(O)(c2ccccc2)CC1 [Example 11]
OUTPUT: 0.90

INPUT: Give aconitine-induced arrhythmia of rats R.A. = relative activity for CCOC(=O)c1[nH]c(C)c(C)c1OCCN1CCC(O)(c2ccccc2)CC1 [Example 10]
OUTPUT: 1.67

INPUT: Give aconitine-induced arrhythmia of rats R.A. = relative activity for COC(=O)c1[nH]c(C)c(C)c1OCC(O)CN1CCC(O)(c2ccccn2)CC1 (stereo not shown) [Example 7]
OUTPUT: 0.37

INPUT: Give aconitine-induced arrhythmia of rats R.A. = relative activity for COC(=O)c1[nH]c(C)c(C)c1OCCCN1CCC(O)(c2ccccc2)CC1 [Example 6]
OUTPUT: 1.36

INPUT: Give aconitine-induced arrhythmia of rats R.A. = relative activity for CCCCc1c(C)[nH]c(C(=O)OCC)c1OCC(O)CN1CCC(O)(c2ccccc2)CC1 (stereo not shown) [Example 21]
OUTPUT: 0.51

INPUT: Give aconitine-induced arrhythmia of rats R.A. = relative activity for CCOC(=O)c1[nH]c(C)c(C)c1OCC(O)CN1CCC(O)(c2ccc(F)cc2)CC1 (stereo not shown) [Example 13]
OUTPUT: 0.84
